The reported measurements were obtained from patent US20210388087A1.

Experimental target: T1, Human CD137 ECD (human)
T1 construct: also called 4-1BB
T1 sequence (chain, as listed by the source limits assumed): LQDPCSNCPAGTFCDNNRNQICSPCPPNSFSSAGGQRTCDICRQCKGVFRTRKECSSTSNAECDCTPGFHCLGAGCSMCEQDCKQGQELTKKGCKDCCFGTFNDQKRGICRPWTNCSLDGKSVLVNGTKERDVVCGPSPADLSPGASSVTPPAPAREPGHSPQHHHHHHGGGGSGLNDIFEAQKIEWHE
Protocol description: single mutant vs template dBBDu183H
Recorded endpoint: fold change of affinity (fold)
# output: bare number, implied unit fold

Recorded results for 4 binders are shown here.
- Binder: "H183/L072 VH N31Y (antibody, name in Kabat numbering, V domains shown) VH: QVQLVESGGGLVQPGRSLRLSCAASGFTFSYAWMHWVRQAPGKGLEWVAQIKDKGNAYAAYYAPSVKGRFTISRDDSKNSIYLQMNSLKTEDTAVYYCHYVHYASASTVLPAFGVDAWGQGTTVTVSS VL: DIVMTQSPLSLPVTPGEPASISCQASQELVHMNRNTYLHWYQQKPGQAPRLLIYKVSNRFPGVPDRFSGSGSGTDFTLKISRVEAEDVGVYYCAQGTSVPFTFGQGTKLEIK"
  Recorded result: 0
- Binder: "H183/L072 VH A54S (antibody, name in Kabat numbering, V domains shown) VH: QVQLVESGGGLVQPGRSLRLSCAASGFTFSNAWMHWVRQAPGKGLEWVAQIKDKGNSYAAYYAPSVKGRFTISRDDSKNSIYLQMNSLKTEDTAVYYCHYVHYASASTVLPAFGVDAWGQGTTVTVSS VL: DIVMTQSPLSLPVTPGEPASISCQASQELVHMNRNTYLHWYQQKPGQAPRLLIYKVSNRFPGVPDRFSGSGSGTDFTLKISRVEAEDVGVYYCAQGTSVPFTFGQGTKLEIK"
  Recorded result: 0.9
- Binder: "H183/L072 VH A57V (antibody, name in Kabat numbering, V domains shown) VH: QVQLVESGGGLVQPGRSLRLSCAASGFTFSNAWMHWVRQAPGKGLEWVAQIKDKGNAYAVYYAPSVKGRFTISRDDSKNSIYLQMNSLKTEDTAVYYCHYVHYASASTVLPAFGVDAWGQGTTVTVSS VL: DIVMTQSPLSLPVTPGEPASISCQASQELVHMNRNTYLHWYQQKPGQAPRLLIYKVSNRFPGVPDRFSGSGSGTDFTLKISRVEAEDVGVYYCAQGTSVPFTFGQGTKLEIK"
  Recorded result: 0.5
- Binder: "H183/L072 VH A60Y (antibody, name in Kabat numbering, V domains shown) VH: QVQLVESGGGLVQPGRSLRLSCAASGFTFSNAWMHWVRQAPGKGLEWVAQIKDKGNAYAAYYYPSVKGRFTISRDDSKNSIYLQMNSLKTEDTAVYYCHYVHYASASTVLPAFGVDAWGQGTTVTVSS VL: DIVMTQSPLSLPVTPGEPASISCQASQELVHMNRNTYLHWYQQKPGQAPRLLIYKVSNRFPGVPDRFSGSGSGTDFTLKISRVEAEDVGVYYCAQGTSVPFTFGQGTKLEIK"
  Recorded result: 1.2

Consider the record given below.
Please give measured fold change of affinity of the following entry: H183/L072 VH V95P (antibody, name in Kabat numbering, V domains shown) VH: QVQLVESGGGLVQPGRSLRLSCAASGFTFSNAWMHWVRQAPGKGLEWVAQIKDKGNAYAAYYAPSVKGRFTISRDDSKNSIYLQMNSLKTEDTAVYYCHYPHYASASTVLPAFGVDAWGQGTTVTVSS VL: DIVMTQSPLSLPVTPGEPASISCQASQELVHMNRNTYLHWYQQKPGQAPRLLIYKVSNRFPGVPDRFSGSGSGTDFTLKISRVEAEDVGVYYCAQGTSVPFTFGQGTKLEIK
0
